Parameter: inhibition. Scope: all listed entries.
TARGET_OR_TEST_SYSTEM: Insulin-like growth factor 1 receptor (Homo sapiens) (UniProt P08069);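 also: each value is a mean percent inhibition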
Sequence (P08069 31-736 limits assumed): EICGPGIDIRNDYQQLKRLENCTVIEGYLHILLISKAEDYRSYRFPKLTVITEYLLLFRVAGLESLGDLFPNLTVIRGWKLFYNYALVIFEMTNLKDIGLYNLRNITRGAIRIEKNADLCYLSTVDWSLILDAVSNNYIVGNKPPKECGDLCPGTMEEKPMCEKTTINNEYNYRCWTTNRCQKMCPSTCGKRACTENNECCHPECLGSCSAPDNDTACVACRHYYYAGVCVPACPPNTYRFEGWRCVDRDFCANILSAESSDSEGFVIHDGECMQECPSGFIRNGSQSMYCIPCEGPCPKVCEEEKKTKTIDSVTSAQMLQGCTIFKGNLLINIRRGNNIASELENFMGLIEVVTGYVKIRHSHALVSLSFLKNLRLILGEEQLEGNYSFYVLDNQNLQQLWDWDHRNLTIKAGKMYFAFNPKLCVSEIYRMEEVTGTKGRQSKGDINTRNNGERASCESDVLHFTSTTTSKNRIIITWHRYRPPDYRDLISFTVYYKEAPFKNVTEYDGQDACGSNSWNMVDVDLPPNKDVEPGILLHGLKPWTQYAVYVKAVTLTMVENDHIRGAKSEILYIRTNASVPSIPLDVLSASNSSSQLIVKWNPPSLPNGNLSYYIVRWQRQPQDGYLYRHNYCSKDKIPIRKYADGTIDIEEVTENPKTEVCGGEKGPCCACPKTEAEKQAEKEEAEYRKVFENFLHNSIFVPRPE
Sequence (P08069 741-1367 limits assumed): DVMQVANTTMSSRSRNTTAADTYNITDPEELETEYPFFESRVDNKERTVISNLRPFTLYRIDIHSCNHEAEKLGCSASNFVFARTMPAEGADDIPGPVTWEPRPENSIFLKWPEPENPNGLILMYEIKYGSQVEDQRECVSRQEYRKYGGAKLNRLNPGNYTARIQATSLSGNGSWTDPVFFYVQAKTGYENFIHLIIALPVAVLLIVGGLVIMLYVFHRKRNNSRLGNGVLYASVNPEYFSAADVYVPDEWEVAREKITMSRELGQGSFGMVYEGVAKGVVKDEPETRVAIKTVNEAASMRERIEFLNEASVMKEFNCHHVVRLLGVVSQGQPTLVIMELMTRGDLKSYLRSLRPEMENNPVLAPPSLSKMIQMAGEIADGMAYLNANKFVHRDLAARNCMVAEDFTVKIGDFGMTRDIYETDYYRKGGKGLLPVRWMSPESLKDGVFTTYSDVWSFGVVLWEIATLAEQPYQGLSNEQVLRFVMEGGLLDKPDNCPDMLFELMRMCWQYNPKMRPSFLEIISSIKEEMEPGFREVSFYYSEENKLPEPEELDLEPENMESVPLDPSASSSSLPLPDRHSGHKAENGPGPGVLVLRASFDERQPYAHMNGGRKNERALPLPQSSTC
TEST_CONTEXT: at 1 µM
Write the value in % as a bare number.

CN(c1ccc(NC(=O)NCCN2CCOCC2)cc1)c1ccnc(Nc2ccc(CS(C)(=O)=O)cc2)n1 | 4.94
CCS(=O)(=O)c1ccc(OC)c(Nc2ncc(-c3cccc(C(C)=O)c3)o2)c1 | 3.11

input: Form field: inhibition recorded for CN(C)CCNC(=O)Nc1ccc(N(C)c2ccnc(Nc3ccc(CS(C)(=O)=O)cc3)n2)cc1 with Insulin-like growth factor 1 receptor (Homo sapiens) (UniProt P08069) (enter value)
output: 8.75

input: Form field: inhibition recorded for CS(=O)(=O)CCNCc1ccoc1-c1ccc2ncnc(Nc3ccc(OCc4ccccc4)cc3)c2c1 with Insulin-like growth factor 1 receptor (Homo sapiens) (UniProt P08069) (enter value)
output: -0.73

* * *

Parameter: inhibition. Scope: all listed entries.
TARGET_OR_TEST_SYSTEM: Glycogen synthase kinase-3 beta (Homo sapiens);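 also: values are mean percent inhibition of GSK3B activity, from the GSK Published Kinase Inhibitor Set (PKIS) screening dataset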
TEST_CONTEXT: at 0.1 µM
Write the value in % as a bare number.

FC(F)(F)CNc1nccc(-c2cnn3ncccc23)n1 | 2.33
O=C(O[C@H]1CN[C@H](C#Cc2cc3ncnc(Nc4ccc(OCc5cccc(F)c5)c(Cl)c4)c3s2)C1)N1CCOCC1 | 2.75
COc1ccc2ncn(-c3cc(O[C@H](C)c4ccccc4C(F)(F)F)c(C(N)=O)s3)c2c1 | -0.14
CCS(=O)(=O)c1ccc(OC)c(Nc2ncc(-c3cccc(F)c3)o2)c1 | 2.72
Cc1cc(O)cc(C)c1/C=C/c1cncc(C(N)=O)c1 | 1.76
Cc1ccc(-c2cc3c(NC(=O)C4CC4)ncnc3o2)cc1 | 7.9
O=C1Nc2ccccc2/C1=C1\CCc2cc(O)ccc21 | 1.77
OCCCNc1nccc(-c2c(-c3ccc(F)cc3)nn3cc(C(F)(F)F)ccc23)n1 | 8.01

input: Form field: reported inhibition of CC1=C(C(=O)Nc2ccc3[nH]ncc3c2)C(c2ccc(F)cc2)N=C(c2ccc(C(F)(F)F)nc2)N1 (stereo not given)
output: 1.95

input: Form field: reported inhibition of CCN1CCC(C(=O)Nc2n[nH]c3nnc(-c4cccc(F)c4F)cc23)CC1
output: 80.9

* * *

TARGET_OR_TEST_SYSTEM: Serine/threonine-protein kinase PLK1 (Homo sapiens);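 also: reported values are mean PLK1 inhibition, measured as part of the GSK PKIS profiling set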
TEST_CONTEXT: at 0.1 µM
Parameter: inhibition. Scope: all listed entries.
Write the value in % as a bare number.

Observe how each entry below is paired with its result.
COC(=O)Nc1nc2cc(Oc3ccc(NC(=O)Nc4ccccc4)cc3)ccc2[nH]1 | 2.19
COc1cc(N2CCN(C(C)C)CC2)ccc1Nc1nc(Nc2cccc3ncccc23)c2cc[nH]c2n1 | -0.26
COc1ccc(Nc2ncc(-c3ccccc3)o2)cc1OC | 2.85
CS(=O)(=O)CCNCc1ccc(-c2ccc3ncnc(Nc4ccc(OCc5ccccc5)cc4)c3c2)o1 | 3.64
CN1CCC(n2cnc(-c3ccc(F)cc3)c2-c2ccnc(NCCO)n2)CC1 | 1.49
CCCNc1cccc(-n2ncc3c(N/N=C/c4ccncc4)ncnc32)c1 | -0.12

input: Form field: inhibition recorded for CNC(=O)c1sc(-n2cnc3cc(OC)c(OC)cc32)cc1OCc1ccccc1C(F)(F)F with Serine/threonine-protein kinase PLK1 (Homo sapiens) (enter value)
output: 4.65

Where these numbers come from: ChEMBL document CHEMBL1961873
